# System: SNB-75 CNS
# assay-overview: NCI-60 one-dose screen, 48 h (100 = growth as untreated, 0 = no growth, -100 = all killed)
# study-conditions: 10 µM unless noted
The panel holds about 83,000 compounds, 20% with a hit somewhere; the sample as a whole holds those more often.
The label is Met for growth below 70% and Not met for growth equal to or exceeding 70%.

Field: example entries. Status: answers known.
[[record]]
compound = "OC1CSSC1Cn1cnc2c(Nc3ccc(F)c(Cl)c3)ncnc21 (stereo not drawn)"
subject_of_test = "SNB-75 CNS"
group_label = "Not met"

[[record]]
compound = "CCN(CC)c1ccc(/C=N/NC(=O)c2ccccc2Nc2ccnc(C(F)(F)F)c2)c(O)c1"
subject_of_test = "SNB-75 CNS"
group_label = "Met"

[[record]]
compound = "CCN1C(=O)N(CC)C2C1NN=c1s/c(=C\\c3ccc(F)cc3)c(=O)n12 (stereo not drawn)"
subject_of_test = "SNB-75 CNS"
group_label = "Met"

[[record]]
compound = "COCCn1cc(-c2nc(-c3cc4cccnc4n3C)cs2)c2cc(OC)ccc21"
subject_of_test = "SNB-75 CNS"
group_label = "Met"

[[record]]
compound = "COc1ccc(-c2cc(-c3ccc(N(C)C)cc3)nc(NC(=O)c3cccnc3)n2)cc1"
subject_of_test = "SNB-75 CNS"
group_label = "Not met"


Exam item: State whether 70% exceeds growth recorded for `Clc1ccc(C2=Nn3c(nnc3-c3cc(Cl)cc(Cl)c3Cl)SC2)cc1` .
Marked response: Met

Exam item: State whether 70% exceeds growth recorded for COC(CCP(=O)(c1ccccc1)c1ccccc1)(C(=O)c1ccccc1)c1ccccc1 (stereo not drawn) .
Marked response: Not met

Exam item: State whether 70% exceeds growth recorded for `C=C1/C(=C\C=C2/CCC[C@]3(C)[C@@H]([C@H](C)CCCC(C)(C)O)CC[C@@H]23)C[C@@H](OC(=O)CBr)C[C@@H]1O` .
Marked response: Met

Exam item: State whether 70% exceeds growth recorded for `Oc1cccc(-c2nc(-c3n[nH]c(=S)n3-c3ccccc3)cc3c2[nH]c2ccccc23)c1` .
Marked response: Met

Exam item: State whether 70% exceeds growth recorded for `CC(C)(C#N)c1cc(C(=O)Nc2cc(Nc3ncccc3-c3ncnc4nc[nH]c34)ccc2F)cc(C(F)(F)F)c1` .
Marked response: Met

Exam item: State whether 70% exceeds growth recorded for O=CN1N=C(c2cccc(Nc3ccncc3)c2)CC1c1ccc2c(c1)OCO2 (stereo not drawn) .
Marked response: Not met

Exam item: State whether 70% exceeds growth recorded for `O=c1ccc2nc(-c3ccccc3)nn(-c3ccccn3)c-2c1` .
Marked response: Not met

Exam item: State whether 70% exceeds growth recorded for `CCOC(=O)CCC(=O)P(=O)(O)O` .
Marked response: Not met

Exam item: State whether 70% exceeds growth recorded for `COC1=C(OC)C(=O)C(CCCCCCCCCCO)=C(C)C1=O` .
Marked response: Met

Exam item: State whether 70% exceeds growth recorded for O=C(/C=C/C12c3ccccc3C(c3ccccc31)C1C(=O)NC(=O)C12)c1cccs1 (stereo not drawn) .
Marked response: Met

Exam item: State whether 70% exceeds growth recorded for `CN1CCN(CC(=O)N(C)c2ccc(N=C(c3ccccc3)c3c(O)[nH]c4ccc([N+](=O)[O-])cc34)cc2)CC1` .
Marked response: Not met

Exam item: State whether 70% exceeds growth recorded for `C=CCn1c(SCC(=O)Nc2ccc(C(=O)/C=C/c3cc(OC)c(OC)c(OC)c3)cc2)nnc1-c1cc(-c2ccc(S(N)(=O)=O)cc2)nc2ccccc12` .
Marked response: Not met

Exam item: State whether 70% exceeds growth recorded for `O=C(Nc1cccc2c1C(=O)c1cccc(NC(=O)c3ccc(C(=O)Nc4cccc5c4C(=O)c4cccc(NC(=O)c6ccccc6)c4C5=O)cc3)c1C2=O)c1ccccc1` .
Marked response: Not met
